- System: HCC-2998 colon
- METHOD: NCI tumour cell line growth inhibition, 48 h
REPORTED ENDPOINT: TGI (µM)

{"columns": ["COMPOUND", "RESULT UNIT", "BOUND OPERATOR", "OBSERVED RESULT"],
 "data": [
  ["CC1(CO)C(O)CCC2(C)C1C(O)CC1CC3CC12CCC3(O)CO (configuration not stated)", "µM", ">", 225],
  ["O=C(Nc1ccc(Oc2ccc(NC(=O)Nc3ccccc3Cl)cc2)cc1)Nc1ccccc1Cl", "µM", ">", 51.7],
  ["CCOC(=O)NC(=O)c1cn(CCCCCCCCCCC(=O)NCCCN2CCN(CCCNC(=O)CCCCCCCCCCn3cc(C(=O)NC(=O)OCC)c(=O)[nH]c3=O)CC2)c(=O)[nH]c1=O", "µM", ">", 100],
  ["COc1ccc(C2=NN(C=O)C(c3ccc(OS(=O)(=O)c4ccc(C)cc4)c(OC)c3)C2)cc1 (configuration not stated)", "µM", ">", 100],
  ["Nc1nc(=S)c2ncn(C3OC(CO)C(O)C3O)c2[nH]1 (configuration not stated)", "µM", "=", 5],
  ["CCC(CC)c1cc(N[C@H]2CC[C@H](N)C2)n2nccc2n1", "µM", "=", 12],
  ["Cc1cncc(-c2nc(NCCc3c[nH]c4ccccc34)c3ncn(C(C)C)c3n2)c1", "µM", "=", 15.1]
]}
